Values compiled from patent US20220227830A1.

- tested system: T1, full-length human GIPR with an N-terminal FLAG tag, overexpressed on HEK-293T cells (human, UniProt P48546 22-466)
- T1 sequence (looked up): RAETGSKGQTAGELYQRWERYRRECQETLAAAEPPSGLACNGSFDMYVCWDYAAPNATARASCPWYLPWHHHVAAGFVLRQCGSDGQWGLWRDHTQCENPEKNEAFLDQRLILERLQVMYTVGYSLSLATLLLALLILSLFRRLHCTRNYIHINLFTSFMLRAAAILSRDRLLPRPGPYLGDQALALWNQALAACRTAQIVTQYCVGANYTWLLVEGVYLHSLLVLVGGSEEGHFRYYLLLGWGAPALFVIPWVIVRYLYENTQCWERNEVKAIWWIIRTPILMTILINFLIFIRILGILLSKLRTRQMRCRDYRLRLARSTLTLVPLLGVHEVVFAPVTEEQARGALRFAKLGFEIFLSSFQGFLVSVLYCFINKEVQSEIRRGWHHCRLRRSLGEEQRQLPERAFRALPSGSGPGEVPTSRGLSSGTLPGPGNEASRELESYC
- protocol: cell-based or functional assay
Starred links: 1 amine or outer side, 2 acyl side, 3 side chain; linkers in the order of their positions; H or OH if unused. Non-standard residues stand in square brackets, D forms with d. Groups on a side chain read outwards from the residue. No end group written: not given here. *: point of attachment. C15 diacid = O=C(O)CCCCCCCCCCCCCC(=O)*; γGlu = O=C(O)[C@H](CCC(=O)[*:2])N[*:1]; AEEA = NCCOCCOCC(=O)O; Aib = CC(C)(N)C(=O)O
value kind: Human GIPR cAMP, HEK293T EC50 (pM)
Expressed in pM, but write only the number.

Me-Y[Aib]EGTFISDYSIALDR[Aib]AQ[Aib]K([2OEG-γGlu-γGlu-C15 diacid])FVNWLLAQRG-OH [Compound 211]    0.2
YXEGTFISDYSIAXDRXAQXDFVNWLLAQSG (N-terminal Me (Me-Tyr1); Aib at 2, 17, 20; Km = Lys(R) at 14, linker printed GS (read as G5 = GGGGG), lipid C15DA (C15 diacid); C-terminal OH) [Compound 172]    0.4
YXEGTFISDYSIAXDRXAQXDFVNWLLAQSPG (N-terminal Me (Me-Tyr1); Aib at 2, 17, 20; Km = Lys(R) at 14, linker printed GS (read as G5 = GGGGG), lipid C15DA (C15 diacid); C-terminal OH) [Compound 159]    0.2
Me-Y[Aib]EGTFISDYSIALDR[Aib]K([AEEA-AEEA-γGlu-γGlu-C15 diacid])Q[Aib]DFVNWLLAQRG-OH [Compound 162]    0.2

What value of Human GIPR cAMP, HEK293T EC50 has been recorded for this entry: Me-Y[Aib]EGTFISDYSIALDR[Aib]AQ[Aib]K([2OEG-γGlu-γGlu-γGlu-C15 diacid])FVNWLLAQKG-OH [Compound 201]
0.2

What value of Human GIPR cAMP, HEK293T EC50 has been recorded for this entry: YXEGTFISDYSIALDRXAQXDFVNWLLAQSPSSGAPPPS (N-terminal Me (Me-Tyr1); Aib at 2, 20; Km = Lys(R) at 17, linker printed GS (read as G5 = GGGGG), lipid C15DA (C15 diacid); C-terminal OH) [Compound 166]
0.4

What value of Human GIPR cAMP, HEK293T EC50 has been recorded for this entry: Me-Y[Aib]EGTFISDYSI[Aib]LDR[Aib]KQ[Aib]DFVNWLLAQSPG-OH (not fully specified (residues 1, 18); printed as Me-Tyr-Aib-Glu-Gly-Thr-Phe-Ile-Ser-Asp-Tyr-Ser-Ile-Aib-Leu-Asp-Arg-Aib-Lys(R)-Gln-Aib-Asp-Phe-Val-Asn-Trp-Leu-Leu-Ala-Gln-Ser-Pro-Gly-OH) [Compound 185]
0.4

What value of Human GIPR cAMP, HEK293T EC50 has been recorded for this entry: YXEGTFISDYSIXXDRXAQXDFVNWLLAQSPG (N-terminal Me (Me-Tyr1); Aib at 2, 13, 17, 20; Km = Lys(R) at 14, linker printed GS (read as G5 = GGGGG), lipid C15DA (C15 diacid); C-terminal OH) [Compound 182]
0.2

What value of Human GIPR cAMP, HEK293T EC50 has been recorded for this entry: Y[Aib]EGTFISDYSIALDR[Aib]AQ[Aib]K([AEEA-AEEA-γGlu-γGlu-C15 diacid])FVNWLLAQKG-OH (not fully specified (residue 1)) [Compound 188]
0.3

What value of Human GIPR cAMP, HEK293T EC50 has been recorded for this entry: Me-Y[Aib]EGTFISDYSIALDR[Aib]AQ[Aib]K([2OEG-γGlu-γGlu-C15 diacid])FVNWLLAQKG-NH2 [Compound 205]
0.2
